Origin of values: paper doi:10.1101/2020.03.05.979567v1

Target: recombinant mouse Nape-pld (Mus musculus)
Sequence (Q8BH82 whole entry): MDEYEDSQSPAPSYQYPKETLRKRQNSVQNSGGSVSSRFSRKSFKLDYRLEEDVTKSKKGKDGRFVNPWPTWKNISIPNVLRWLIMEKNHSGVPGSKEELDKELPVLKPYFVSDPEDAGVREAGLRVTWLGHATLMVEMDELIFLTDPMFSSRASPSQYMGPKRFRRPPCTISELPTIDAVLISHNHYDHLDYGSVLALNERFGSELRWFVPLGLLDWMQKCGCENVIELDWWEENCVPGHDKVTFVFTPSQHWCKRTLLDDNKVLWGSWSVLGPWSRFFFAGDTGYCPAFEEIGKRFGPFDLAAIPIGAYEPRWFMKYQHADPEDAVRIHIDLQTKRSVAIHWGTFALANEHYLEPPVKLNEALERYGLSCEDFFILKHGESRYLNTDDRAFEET
Assay: biochemical
pIC50: −log10 of the molar value.
readout_label: pIC50

The reported pIC50 of the compound O=C(Nc1ccc(Cl)cc1)Nc1ccc(Cl)c(Cl)c1 was < 3.70

---

Target: NAPE-PLD (endogenous, HEK293 cells) (Homo sapiens, UniProt Q6IQ20)
Sequence (Q6IQ20 whole entry): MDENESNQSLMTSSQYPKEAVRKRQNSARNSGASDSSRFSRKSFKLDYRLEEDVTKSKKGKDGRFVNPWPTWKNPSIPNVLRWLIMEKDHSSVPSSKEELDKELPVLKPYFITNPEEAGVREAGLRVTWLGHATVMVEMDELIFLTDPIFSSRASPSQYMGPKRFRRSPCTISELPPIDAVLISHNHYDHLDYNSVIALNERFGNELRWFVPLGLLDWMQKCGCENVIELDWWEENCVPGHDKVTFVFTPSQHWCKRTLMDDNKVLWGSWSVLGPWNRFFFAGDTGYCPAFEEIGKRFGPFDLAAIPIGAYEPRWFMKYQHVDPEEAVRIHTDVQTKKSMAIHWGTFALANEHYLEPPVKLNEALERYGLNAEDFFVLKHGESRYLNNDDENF
Assay: PED-A1 hydrolysis in intact HEK293 cells, fluorescence
Type: cell-based
Details: 30 min preincubation, 3.5 μM PED-A1
Listed compounds paired with reported IC50
// note: answer is a bare numeric in µM

Reported IC50 (NAPE-PLD (endogenous, HEK293 cells) (Homo sapiens, UniProt Q6IQ20)) for entry Oc1c(Cl)cc(Cl)cc1Sc1cc(Cl)cc(Cl)c1O is 10.7

Recorded IC50 for Oc1c(Cl)cc(Cl)c(Cl)c1Cc1c(O)c(Cl)cc(Cl)c1Cl on NAPE-PLD (endogenous, HEK293 cells) (Homo sapiens, UniProt Q6IQ20) was 9.8
